Values compiled from patent US10450356B2.

Molecular target: 20S proteasomes purified from a B-LCL cell line (immunoproteasomes) (Homo sapiens, UniProt P28062+P28065+P40306)
Construct: 20S proteasomes were purified from a B-LCL cell line; endogenous in cells; purified after Groettrup et al. 1995
Experiment: In vitro proteasome mediated cleavage analysis
Assay type: biochemical
Parameters: key: intact epitope found in digestion fragments: (+), present; (-), not present
Settings: intact epitope found in digestion fragments after 1 h digestion
READOUT LABEL: Intact in fragment

CC(C)C[C@H](NC(=O)[C@H](Cc1ccc(O)cc1)NC(=O)[C@@H]1CCCN1C(=O)[C@H](CO)NC(=O)[C@H](Cc1ccccc1)NC(=O)[C@H](CCCCN)NC(=O)[C@H](C)NC(=O)[C@H](CC(C)C)NC(=O)[C@@H](N)[C@@H](C)O)C(=O)O: +
CC(C)C[C@H](NC(=O)[C@H](CC(C)C)NC(=O)[C@@H](NC(=O)[C@H](CC(=O)O)NC(=O)[C@H](CC(C)C)NC(=O)CNC(=O)[C@H](CC(=O)O)NC(=O)[C@H](CC(C)C)NC(=O)[C@@H](NC(=O)[C@H](C)N)C(C)C)C(C)C)C(=O)O: +
